# System: OVCAR-5 ovarian
# Experimental Protocol: NCI-60 one-dose screen, 48 h
# Particulars: 10 µM unless noted
Compounds without any hit were thinned out: in the full panel of roughly 83,000, 20% have a hit. The source made the active and inactive calls. Rule for the calls: active = growth percent below 10; inactive = the rest.
Lab note: assign the record to one of Yes = active, No = inactive

Compound	Group
O=C(Nc1ccc(Br)cc1)c1ccc(Cl)c(Cl)c1	No
O=C(c1ccccc1)C1OC1C(=O)c1ccccc1 (stereo not given)	No
CCN(C(=O)CCl)C(C)(C)C(SSSC(c1ccc(Cl)cc1)C(C)(C)N(CC)C(=O)CCl)c1ccc(Cl)cc1 (stereo not given)	No
ClCCn1cnc2c(SCc3ccccc3Cl)ncnc21	No

Q: Hi, sorry to bother you, what did the test record for COc1ccc(C(=O)C(CN(C)C)c2ccc(OC)cc2)cc1 (stereo not given) ?
Ans: No

Q: State the result this test recorded for `CCN(CC)CCNC(=O)n1cc(-c2ccncc2)c(-c2ccc(Cl)c(OC)c2)n1` .
Ans: No

Q: Could you kindly confirm the outcome this assay logged for `COc1cc(OC)c2sc(-c3ccc(-n4cncc4-c4ccc(OC)c(N)c4)cc3)nc2c1` ?
Ans: No

Q: Outcome? CC(=O)O[C@@H]1CC2C(C)(C)CCCC2(C)C2=C1C(=O)C(C(C)C)=CC2=O (stereo not given in full)
Ans: Yes

Q: Given `COc1cc(Nc2ncccc2/C=C/C(=O)c2cc(OC)c(OC)c(OC)c2)cc(OC)c1OC` , state the outcome it received in this test.
Ans: No

Q: Write down the call the test reported for this compound. Item: O=C1OCC2=C1C(c1ccccc1)c1cc3c(cc1N2CCO)CCC3 (stereo not given)
Ans: No

---

# System: HCT-15 colon
# Experimental Protocol: NCI-60 one-dose screen, 48 h (100 = growth as untreated, 0 = no growth, -100 = all killed)
# Particulars: 10 µM unless noted
Compounds without any hit were thinned out: in the full panel of roughly 83,000, 20% have a hit. Calls of active or inactive are those of the source. How the source made its calls: active means growth percent below 10; inactive means the rest.
Property Name: growth

Compound	Measured Target	Observed Result
Cc1[nH]c2ccccc2c1C1=CC(=O)C=CC1=O	HCT-15 colon	74.6% (inactive)

Q: Which value of growth has been reported for `O=C(/C=C/c1ccc(F)cc1)N1CCN(C(=O)/C=C/c2ccc(C(F)(F)F)cc2)CC1` in the records?
Ans: 104% (inactive)

Q: Quick one: growth for `Cc1cc(-c2ccccc2)on1` ?
Ans: 101% (inactive)

Q: Looking for the measured growth of `CC(=O)c1ccc(N2C(=O)c3ccc(Oc4ccccc4)cc3C2=O)cc1` , can you help?
Ans: 111% (inactive)

Q: Given `CCCCn1cnc2c(SCc3ccc([N+](=O)[O-])cc3)nc(N)nc21` , state its recorded growth.
Ans: 88.2% (inactive)

Q: Give the measured growth of `COc1cc([N+](=O)[O-])cc(OC)c1OC` .
Ans: 107% (inactive)

---

# Tested on: NCI/ADR-RES ovarian
# Experimental Protocol: NCI-60 one-dose screen, 48 h (100 = growth as untreated, 0 = no growth, -100 = all killed)
# Particulars: 10 µM unless noted
The panel holds about 83,000 compounds, 20% with a hit somewhere; the sample as a whole holds those more often.
Property Name: growth (%)
Lab book: enter the figure in %, no units written.

Compound	growth (%)
Cc1ccc(C)c(NC(=O)c2sc3c(=O)[nH]cnc3c2C)c1	58

Q: Find the measured growth: item O=C1OCC2=C1C(c1ccccc1)c1cc3c(cc1N2CCO)CCC3 (centres undefined) , target or system NCI/ADR-RES ovarian.
Ans: -70.4

Q: GET /values?readout=growth&system=NCI/ADR-RES ovarian&item= `CC(=O)Oc1c(Cl)c(Cl)c(Cl)c(Cl)c1Cl`
Ans: 93.4

Q: Field: growth (NCI/ADR-RES ovarian). Entry: `O=C(NO)c1ccc(CNc2cccc3nc(C4CC4)n(-c4ccccc4)c(=O)c23)cc1`
Ans: -10.7

Q: Notebook: pull reported growth for NCI/ADR-RES ovarian, entry `Cc1ccc([C@H]2c3[nH]c4ccccc4c3C[C@H]3C(=O)N(CCCCCCC(=O)NO)CC(=O)N23)cc1`
Ans: 94.5
